Every entry's value here was drawn from PubChem BioAssay.

- experiment: inhibitors of TNFa-induced NFkB p65 translocation, primary screen, imaging, HUVEC, MLSMR starter and 10KST1 sets (AID 438);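 also: compound added about 3h40 before a 20 min TNFalpha stimulation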
- condition.description: HUVEC TNFa-induced p65 nuclear translocation; measured here: nuclei count (cytotoxicity indicator), at 2.08 µM
cell count vs 600: at or above is Met, below is Not met.

Dear colleague, could you confirm whether COc1ccc(OC)c(C(O)C(C)N)c1 (configuration not stated) has cell count at or above 600?
Not met

Dear colleague, could you confirm whether CC1=C(C(=O)OC(C)C)[C@]2(C(=O)N(CC(N)=O)c3ccccc32)C(C#N)=C(N)O1 has cell count at or above 600?
Not met

Dear colleague, could you confirm whether Oc1ccc(C2NCc3ccccc3-n3cccc32)cc1Cl (configuration not stated) has cell count at or above 600?
Met

Dear colleague, could you confirm whether c1ccc(C2CC3CC(c4ccco4)N2O3)cc1 (configuration not stated) has cell count at or above 600?
Not met

Dear colleague, could you confirm whether COc1ccc(CC2C(=O)NC(=O)NC2=O)c(OC)c1 has cell count at or above 600?
Met

Dear colleague, could you confirm whether N#Cc1ccccc1Cn1cc(C(=O)c2ccco2)c2ccccc21 has cell count at or above 600?
Not met

Dear colleague, could you confirm whether C[C@H]1CCCC(=O)CCC/C=C/c2cc(O)cc(O)c2C(=O)O1 has cell count at or above 600?
Not met

Dear colleague, could you confirm whether O=c1c2ccccc2[se]n1-c1ccccc1 has cell count at or above 600?
Not met

Dear colleague, could you confirm whether OC1(c2ccc(F)cc2)CCNC1 (configuration not stated) has cell count at or above 600?
Not met

Dear colleague, could you confirm whether CN(C)CCN=Cc1c(O)n(-c2cccc3ccccc23)c(=O)[nH]c1=O has cell count at or above 600?
Not met

Dear colleague, could you confirm whether C=CCC1(CN2CCCCCC2=O)C(=O)NC(=O)NC1=O has cell count at or above 600?
Met

---

- experiment: reduction of polyQ htt aggregates in cells – imaging, exon1htt(103Q)mCFP cells, high-content imaging, primary screen (AID 483);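 also: compound exposure lasted 3 days before fixation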
- condition.description: exon1htt(103Q)mCFP cell line, aggregate imaging, at 2 µM; stronger effect = higher value
I'd be grateful if you could share measured inhibition of aggregation for these entries.
// return numeric value only (unit: %, not printed)

Lab note: measured inhibition of aggregation of CCOC(=O)C1CCCCC12C(C#N)=C(N)Oc1n[nH]c(C)c12 (stereo unspecified) was -12

Lab note: measured inhibition of aggregation of C[C@@]1(CO)[C@H](O)CC[C@@]2(C)[C@H]1CC[C@H]1C[C@@H]3C[C@@]12CC[C@]3(O)CO was -9.1

Lab note: measured inhibition of aggregation of COP(=O)(OC)C(O)C(Cl)(Cl)Cl (stereo unspecified) was -21.7

Lab note: measured inhibition of aggregation of CCOc1c(P(=S)(N(C)C)N(C)C)c(C)nn1-c1ccccc1 was 4.6

Lab note: measured inhibition of aggregation of Cc1cccc(-n2c(-c3ccco3)nc3ccccc3c2=O)n1 was 3.4

Lab note: measured inhibition of aggregation of COc1ccc(Cc2nccc3cc(OC)c(OC)cc23)cc1OC was -8.7

---

- experiment: inhibitors of TNFa-induced NFkB p65 translocation, primary screen, imaging, HUVEC, MLSMR starter and 10KST1 sets (AID 438);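 also: compound added about 3h40 before a 20 min TNFalpha stimulation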;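 as to inhibition: signal is the nuclear over cytoplasmic p65 intensity ratio per well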
- condition.description: HUVEC TNFa-induced p65 nuclear translocation; at 2 µM, stronger effect = higher value unless noted
I'd be grateful if you could share measured inhibition for these entries.
// return numeric value only (unit: %, not printed)

Lab note: measured inhibition of CC(C)C(=O)c1cn(Cc2ccccc2C#N)c2ccccc12 was 3.5

Lab note: measured inhibition of O=C1C2CCCN2C(c2ccc(Cl)c(Cl)c2)N1c1ccccn1 (stereo unspecified) was -2.1

Lab note: measured inhibition of Cc1[nH]c2c(Cl)cccc2c1CCN was 3.9

Lab note: measured inhibition of CCOc1ccccc1-n1c(O)c(C=Nc2ccc(N(CC)CC)cc2)c(=O)[nH]c1=O was -15.7

Lab note: measured inhibition of CC1(C)C(c2ccccc2)=NC(c2cccnc2)N1O (stereo unspecified) was 8.2

Lab note: measured inhibition of CC(C)[C@H]1C(=O)N2CCC[C@H]2[C@]2(O)O[C@](NC(=O)[C@@H]3C=C4c5cccc6[nH]cc(c56)C[C@H]4N(C)C3)(C(C)C)C(=O)N12 was 1.6

Lab note: measured inhibition of COc1ccc2[nH]cc(CCN(C)C)c2c1 was -3.3

Lab note: measured inhibition of O=c1[nH]c(O)c(C=NC2CCN(Cc3ccccc3)CC2)c(=O)[nH]1 was 0.5

Lab note: measured inhibition of CCOc1ccc(C2SCC(=O)Nc3c2c(=O)[nH]n3C2CCCCCC2)cc1 (stereo unspecified) was 23.8

Lab note: measured inhibition of O=C(O)CCCc1ccc(N(CCCl)CCCl)cc1 was -7.2

Lab note: measured inhibition of CCOc1ccc(Br)c(C2(O)CC(C)N(C)CC2C)c1 (stereo unspecified) was -10.1
